Target: T1, human TNFR2 on the cell surface (CHO-TNFR2 cells; human Treg cells) (human, UniProt P20333 23-461)
T1 construct: whole, on cells; The assay field of each row says which cells; also called TNFR2-CHO cell; TNFR2 on Treg cells
T1 sequence (looked up): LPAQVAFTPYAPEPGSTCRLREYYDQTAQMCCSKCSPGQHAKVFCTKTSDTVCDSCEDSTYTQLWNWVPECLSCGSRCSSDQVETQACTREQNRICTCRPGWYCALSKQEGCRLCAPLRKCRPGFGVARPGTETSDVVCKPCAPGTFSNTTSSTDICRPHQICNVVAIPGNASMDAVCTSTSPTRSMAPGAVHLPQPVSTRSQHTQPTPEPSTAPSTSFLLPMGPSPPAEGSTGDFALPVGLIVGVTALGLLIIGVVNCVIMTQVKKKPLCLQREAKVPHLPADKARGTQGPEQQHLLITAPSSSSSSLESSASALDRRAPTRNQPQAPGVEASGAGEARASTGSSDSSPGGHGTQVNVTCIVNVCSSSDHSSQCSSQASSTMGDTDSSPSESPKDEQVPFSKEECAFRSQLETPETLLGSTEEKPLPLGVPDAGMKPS
Experiment: flow cytometry, blocking of TNFα-biotin on CHO-TNFR2 cells
MEASURED QUANTITY: Antibody AUC

Quick check: Antibody AUC of TNFR2 antibody #309 (antibody, V domains shown) VH: EVQLQESGAELVKPGASVKLSCKASGYTFTSYWIHWVKLRPGQGFEWIGEINPNNGGTDYNEKFKRKATLTVDKSSSTAYMELSSLTSEDSAIYYCTIDSMITTTWFAYWGQGTTVTVSS VL: EIVMTQSQKLMSTVVGDRVSVTCKASQNVGTNVAWFQQKPGQSPKALINSASYRYSGVPDRFTGSGSGTDFTLTISSVQSEDLAEYFCQQYNSYPFTFGSGTKLEIK ?
27800

Which Antibody AUC is reported for this binder? TNFR2 antibody #224 (antibody, V domains shown) VH: EVQLQESGPEIVKPGASVKLSCTASGFNNKDIYMHWVKQRPEQGLEWIGRIDPATGNTKHDPKFQDKATLSSDTSSNTAYLQFSSLTSEDTAVYYCAHSPYGDFGAMDYWGQGTTVTVSS VL: DIQMTQSPAIMSASLGERVTMTCTASSSVSSNYLHWYQQKPGSSPKLWIYSTSNLPSGVPARFSGSGSGTSYSLTISSMEAEDAATYYCHQYHRSPWTFGGGTKLEIK
40000

Could you share which Antibody AUC value was measured for TNFR2 antibody #133 (antibody, V domains shown) VH: EVQLQESGAELVRSGASVKLSCTASGFNIKDYYIQWVKQRPEQGLEWIGWIDPESGNTKYAPKFQDKATMTADTSSNTAYLQLSGLTSEDSAVYYCNAYYDYDGSMDYWGQGTTVTVSS VL: DIVMTQSPLSLPVSLGDQASISCRSSQSLVHSNGNTYLHWYLQKPGQSPKLLIYKVSNRFSGVPDRFSGSGSGTDFTLKISRVETDDLGVYFCSQSTHVPTWTFGGGTKLEIK ?
17300

So what does the record say about Antibody AUC for TNFR2 antibody #219 (antibody, V domains shown) VH: EVQLQESGAELVRPGASVKLSCKASGYSFTNYWMNWVKQRPGQGLEWIGMIHPSDTETRLNQNFKDKATLTVDKSSSTSYMQLSSPTSEDSAVYYCARGEGLGAARSVSMDYWGQGTTVTVSS VL: DILMTQSPSSLSASLGDRVTISCRASQDISNYLNWYQQKPDGTVKVLIYYTAILHSGVPSRFSGSGSGTDYSLTISNLEQEDIATYFCQQGNTLPWTFGGGTKLEIK ?
14900
